What follows is literature data on pIC50 for ROCK2 (Homo sapiens).
pIC50: −log10 of the molar value.

- compound: "Cn1c(C(=O)N2CC(C(F)F)C2)cc2c1CN(c1nccc(Nc3ccc(-c4cn[nH]c4)cc3)n1)CC2"
  pIC50: "≥ 7.30"
- compound: "Cn1nc(C(=O)NC2CC3(C2)CC(c2n[nH]c(=O)c4ccccc24)C3)cc1C1CC1 (stereo not shown)"
  pIC50: "8.30 to 8.70"
- compound: "O=C(NC1CC2(C1)CC(c1n[nH]c(=O)c3ccccc13)C2)N1CC(CN2CCOCC2)c2ccccc21 (stereo not shown)"
  pIC50: "7.00 to 7.82"
- compound: "COc1cccc(CN2C(=O)N(c3ccc(-c4cn[nH]c4)cc3)CC23CCN(CC(O)CO)CC3)c1 (stereo not shown)"
  pIC50: "> 8.52"
